All values here come from patent US20220220218A1.

Target: T1, human CD73 (huCD73) protein, antigen of the Biacore assay (human, UniProt P21589 27-547, limits assumed)
T1 construct: also called human CD73 antigen
T1 sequence (looked up): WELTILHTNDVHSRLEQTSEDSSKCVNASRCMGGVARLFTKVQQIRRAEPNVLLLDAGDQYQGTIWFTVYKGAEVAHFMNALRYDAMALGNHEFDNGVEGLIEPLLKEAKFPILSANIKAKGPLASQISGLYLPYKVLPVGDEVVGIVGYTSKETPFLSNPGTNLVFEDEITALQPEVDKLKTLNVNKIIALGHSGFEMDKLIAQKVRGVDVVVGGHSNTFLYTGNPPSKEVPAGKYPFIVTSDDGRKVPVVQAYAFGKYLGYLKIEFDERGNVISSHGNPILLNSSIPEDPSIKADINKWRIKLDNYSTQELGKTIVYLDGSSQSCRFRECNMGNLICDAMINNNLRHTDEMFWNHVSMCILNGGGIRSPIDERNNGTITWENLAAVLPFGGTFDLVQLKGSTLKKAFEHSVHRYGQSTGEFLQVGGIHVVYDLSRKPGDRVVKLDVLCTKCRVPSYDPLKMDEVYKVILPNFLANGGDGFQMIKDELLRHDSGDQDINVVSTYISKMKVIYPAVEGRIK
Experiment: SPR Biacore T200; antibody captured on Protein A chip, CD73 in flow; 1:1 Langmuir
readoutLabel: kon (M⁻¹ s⁻¹)
Please respond with the number in M⁻¹ s⁻¹ and leave the unit unwritten.

Recorded kon for Hab127.14 (antibody, V domains shown, VL1 + VH4; recombined with human heavy and light constant regions) VH: EVQLVQSGAEVKKPGASVKVSCKASGYTFTAYFMNWVMQAPGQSLEWIGRIYHNNGDTFYSQKFKGRATLTVDKSTSTVYMELRSLRSEDTAVYYCATSYVGDWGQGTTVTVSS VL: DIQMTQSPSSLSASVGDRVTITCRASQDIGDSLNWYQQKPGKAPKRLIYATSSLDSGVPSRFSGSGSGTEFTLTISSLQPEDFATYYCLQYASFPWTFGGGTKVEIK , please? 140000

// same read-out, input: Hab108.25 (antibody, V domains shown, VL2 + VH5; full-length antibody) VH: EVTLKESGPVLVKPTETLTLTCTVSGFSLKSYGIQWVRQPPGKLLEWLGVIWSGGSADYNAAFISRLTISKDTSKSQVVLTMTNMDPVDTATYYCAGQYGSVWGQGTLVTVSS VL: DIQMTQSPSSLSASVGDRVTITCRASQDIGDRLNWLQQKPGKAIKRLIYATSSLDSGVPSRFSGSGSGTEYTLTISSLQPEDFATYYCLQYAGSWTFGGGTKVEIK 290000

How about Hab127.33 (antibody, V domains shown, VL3 + VH3; recombined with human heavy and light constant regions) VH: EVQLVQSGAEVKKPGASVKVSCKASGYTFTAYFMNWVMQAPGQGLEWIGRIYHNNGDTFYSQKFKGRATLTVDKSTSTVYMELSSLRSEDTAVYYCATSYVGDWGQGTTVTVSS VL: DIQMTQSPSSLSASVGDRVTITCRASQDIGDSLNWLQQKPGGALKRLIYATSSLDSGVPSRFSGSGSGTEYTLTISSLQPEDFATYYCLQYASFPWTFGGGTKVEIK ? 175000
